Entries and their % of cells stained values follow.
test.target: trimeric ADA strain HIV-1 envelope protein GP160 (HIV-1 subtype B, isolate ADA, UniProt Q6TAN8, strain)
test.description: flow cytometry on cells
assay.metric: % of cells stained

{"binder": "2F5m L100AS F100BS monoclonal antibody (antibody, V domains shown) VH: RITLKESGPPLVKPTQTLTLTCSFSGFSLSDFGVGVGWIRQPPGKALEWLAIIYSDDDKRYSPSLNTRLTITKDTSKNQVVLVMTRVSPVDTATYFCAHRRGPTTSSGVPIARGPVNAMDVWGQGITVTISS VL: ALQLTQSPSSLSASVGDRITITCRASQGVTSALAWYRQKPGSPPQLLIYDASSLESGVPSRFSGSGSGTEFTLTISTLRPEDFATYYCQQLHFYPHTFGGGTRVDVR", "assay.result": "3.9 % of cells stained"}
{"binder": "2F5 broadly neutralizing monoclonal antibody, wild type (antibody, V domains shown) VH: RITLKESGPPLVKPTQTLTLTCSFSGFSLSDFGVGVGWIRQPPGKALEWLAIIYSDDDKRYSPSLNTRLTITKDTSKNQVVLVMTRVSPVDTATYFCAHRRGPTTLFGVPIARGPVNAMDVWGQGITVTISS VL: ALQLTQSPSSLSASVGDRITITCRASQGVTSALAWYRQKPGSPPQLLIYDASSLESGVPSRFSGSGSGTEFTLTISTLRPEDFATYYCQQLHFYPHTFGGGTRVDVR", "assay.result": "36 % of cells stained"}
{"binder": "2F5m I100FS monoclonal antibody (antibody, V domains shown) VH: RITLKESGPPLVKPTQTLTLTCSFSGFSLSDFGVGVGWIRQPPGKALEWLAIIYSDDDKRYSPSLNTRLTITKDTSKNQVVLVMTRVSPVDTATYFCAHRRGPTTLFGVPSARGPVNAMDVWGQGITVTISS VL: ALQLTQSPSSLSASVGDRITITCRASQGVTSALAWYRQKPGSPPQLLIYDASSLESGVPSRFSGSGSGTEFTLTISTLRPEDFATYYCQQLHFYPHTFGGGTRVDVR", "assay.result": "20 % of cells stained"}
{"binder": "2F5m F100BS monoclonal antibody (antibody, V domains shown) VH: RITLKESGPPLVKPTQTLTLTCSFSGFSLSDFGVGVGWIRQPPGKALEWLAIIYSDDDKRYSPSLNTRLTITKDTSKNQVVLVMTRVSPVDTATYFCAHRRGPTTLSGVPIARGPVNAMDVWGQGITVTISS VL: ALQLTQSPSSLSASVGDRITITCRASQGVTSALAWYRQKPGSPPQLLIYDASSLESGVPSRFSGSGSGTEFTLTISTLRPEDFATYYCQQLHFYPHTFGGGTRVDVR", "assay.result": "12 % of cells stained"}

Cited source: paper PMC3253551
